# target or test system: human recombinant serotonin (5-Hydroxytryptamine) 5-HT2A receptor (Homo sapiens, UniProt P28223)
# Construct: expressed in transfected cells; host or cells: CHO-K1 cells
# Sequence (P28223 whole entry): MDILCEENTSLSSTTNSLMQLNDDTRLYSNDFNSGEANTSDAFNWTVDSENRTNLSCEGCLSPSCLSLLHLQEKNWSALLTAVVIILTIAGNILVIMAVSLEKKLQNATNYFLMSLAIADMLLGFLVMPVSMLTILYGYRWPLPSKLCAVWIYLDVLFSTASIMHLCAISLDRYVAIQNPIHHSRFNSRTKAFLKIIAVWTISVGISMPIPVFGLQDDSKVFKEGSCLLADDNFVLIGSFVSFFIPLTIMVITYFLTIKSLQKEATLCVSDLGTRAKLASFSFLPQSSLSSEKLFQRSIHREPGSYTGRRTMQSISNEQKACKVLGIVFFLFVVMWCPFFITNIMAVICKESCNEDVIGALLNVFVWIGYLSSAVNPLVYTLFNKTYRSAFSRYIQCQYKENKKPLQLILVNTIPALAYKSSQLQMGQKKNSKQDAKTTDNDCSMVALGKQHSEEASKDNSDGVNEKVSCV
# method summary: Serotonin 5-HT2A radioligand binding ([3H]Ketanserin)
# test context: compound at 1 μM; read-out: Serotonin (1 μM) 5-HT2A, percent inhibition of specific binding
List of inhibition at 1 µM values.
Give a bare numeral; the unit % is implied.

Check out these entries, answers already filled in.
C/C(=C/n1c2c(c3cc(Cl)ccc31)CCN(C)CC2)c1ccc(Cl)cc1Cl | 100
Cc1ccc2c(c1)c1c(n2CC(=O)N(C)C2CCCCC2)CCN(C)CC1 | 70
CN1CCc2c(n(CC(O)c3ccc(F)c(F)c3)c3ccc(Cl)cc23)CC1 (stereo not shown) | 100
C/C(=C\n1c2c(c3cc(C)ccc31)CCN(C)CC2)c1cccnc1 | 98
Cc1ccc2c(c1)c1c(n2CC(=O)NC(C)C)CCN(C)CC1 | 1
Cc1ccc2c(c1)c1c(n2CC(=O)Nc2ccccc2)CCN(C)CC1 | -8

From here, focus on the item given below.
Req: Find the recorded inhibition at 1 µM belonging to C/C(=C/n1c2c(c3cc(C)ccc31)CCN(C)CC2)c1ccccc1F and report it.
Resp: 98
